Molecular target: human endothelial lipase (EL) (Homo sapiens, UniProt Q9Y5X9)
Sequence (Q9Y5X9 21-500): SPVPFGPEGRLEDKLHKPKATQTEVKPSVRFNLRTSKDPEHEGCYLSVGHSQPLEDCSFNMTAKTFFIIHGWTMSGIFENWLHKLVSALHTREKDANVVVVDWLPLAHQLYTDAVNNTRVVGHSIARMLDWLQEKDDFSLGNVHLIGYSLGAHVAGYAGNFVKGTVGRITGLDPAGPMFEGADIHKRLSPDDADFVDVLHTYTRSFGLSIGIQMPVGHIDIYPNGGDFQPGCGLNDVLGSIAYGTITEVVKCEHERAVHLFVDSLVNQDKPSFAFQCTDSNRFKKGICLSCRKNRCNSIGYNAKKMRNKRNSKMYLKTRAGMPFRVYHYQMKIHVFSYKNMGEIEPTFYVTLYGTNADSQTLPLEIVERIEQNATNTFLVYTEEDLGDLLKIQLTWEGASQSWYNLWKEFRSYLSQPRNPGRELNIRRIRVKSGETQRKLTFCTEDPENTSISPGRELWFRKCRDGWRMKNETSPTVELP
Test: Endothelial Lipase Assay, cell surface lipase activity (human)
Conditions: cells expressing human EL, PLA1 substrate 10 μM, fluorescence reaction rate; several values in a cell are repeat determinations
measured attribute: log10(IC50) (log10 of the value in nM)
Answers are given as log10 of IC50 in nM.

Check out these entries, answers already filled in.
compound	test target	readout value
O=C(CCCCCOc1cccc(F)c1)C(=O)NCc1nnc(-c2ccc(Oc3cccc(Cl)c3)cc2)o1 [Compound 67]	human endothelial lipase (EL) (Homo sapiens, UniProt Q9Y5X9)	2.81
COc1cccc(OCCCCCC(=O)C(=O)NCc2nnc(-c3ccccc3)o2)c1 [Compound 63]	human endothelial lipase (EL) (Homo sapiens, UniProt Q9Y5X9)	3.74
O=C(CCCCCOc1cc(F)cc(F)c1)C(=O)NCc1nnc(-c2ccccc2)s1 [Compound 108]	human endothelial lipase (EL) (Homo sapiens, UniProt Q9Y5X9)	2.80

For each of the compounds below, state log10(IC50).
1. O=C(CCCCCCc1ccccc1)C(=O)NCc1nnc(-c2ccc(OCc3cccc(Br)n3)cc2)s1 [Compound 162]
2. O=C(CCCCCNc1cccc(F)n1)C(=O)NCc1nnc(-c2ccccc2)o1 [Compound 171]

1. 3.13
2. 4.52

----------
Biological target: UniProtKB Q9Y5X9
Test: Endothelial Lipase Assay, cell surface lipase activity (human)
Details: cells expressing human EL, PLA1 substrate 10 μM, fluorescence reaction rate; several values in a cell are repeat determinations
Description: Endothelial Lipase Assay (Human/Mouse) To assay for cell surface lipase activity, cells expressing human endothelial lipase (EL) or LPL were plated in CellBIND® 384-well plates (Corning, Lowell, Mass.) in 25 μL serum free medium at a density of 2000 cells/well. […] Fluorescence signal was monitored for 30 min at 37° C. on a Safire II plate reader in kinetic mode (60 cycles, kinetic interval: 30 seconds) with an excitation wavelength of 490 nm and an emission wavelength of 515 nm. […]
measured attribute: IC50 (nM)
One number for each entry, in nM.

The examples below pair each entry with its known result.
molecule	test target	measured attribute	unit descriptor	readout value
Cc1cc(COc2ccc(-c3nnc(CNC(=O)C(=O)CCCCCCc4ccccc4)s3)cc2)ccn1 [Compound 174]	UniProtKB Q9Y5X9	IC50	nM	78
O=C(CCCCCOc1ccccc1)C(=O)NCc1nnc(-c2cccc(Oc3ccccc3)c2)o1 [Compound 60]	UniProtKB Q9Y5X9	IC50	nM	7120
O=C(CCCCCCc1ccccc1)C(=O)NCc1nnc(-c2cc(F)cc(F)c2)o1 [Compound 26]	UniProtKB Q9Y5X9	IC50	nM	668
O=C(CCCCCOc1cccc(Cl)c1)C(=O)NCc1nnc(-c2ccc(OCc3ccccc3)cc2)o1 [Compound 96]	UniProtKB Q9Y5X9	IC50	nM	1300
O=C(CCCCCCc1ccccc1)C(=O)NCc1nnc(-c2ccc(OCc3ccccc3)cc2)s1 [Compound 129]	UniProtKB Q9Y5X9	IC50	nM	325

Batch lookup, IC50 per entry.
1. N#Cc1cccc(COc2ccc(-c3nnc(CNC(=O)C(=O)CCCCCCc4ccccc4)s3)cc2)n1 [Compound 163]
2. O=C(CCCCCCc1ccc(F)nc1)C(=O)NCc1nnc(-c2ccc(OCc3ccncc3)cc2)s1 [Compound 159]
3. O=C(CCCCCCc1ccccc1)C(=O)NCc1nnc(-c2ccc(NCc3ccc(F)c(F)c3)cc2)o1 [Compound 118]
4. N#Cc1cccc(COc2ccc(-c3nnc(CNC(=O)C(=O)CCCCCCc4ccccc4)o3)cc2)c1 [Compound 117]
5. COC(=O)c1ccc(COc2ccc(-c3nnc(CNC(=O)C(=O)CCCCCCc4ccccc4)s3)cc2)o1 [Compound 141]
6. Cc1ccc(-c2nnc(CNC(=O)C(=O)CCCCCc3ccccc3)o2)cc1 [Compound 35]

1: 974; 2: 240; 3: 675; 4: 78; 5: 101; 6: 1130

----------
biological target: Mouse EL (Mus musculus); assay: Endothelial Lipase Assay, cell surface lipase activity (mouse); settings: PLA1 substrate 10 μM, fluorescence reaction rate, several values in a cell are repeat determinations
Sequence (Q9WVG5 21-500): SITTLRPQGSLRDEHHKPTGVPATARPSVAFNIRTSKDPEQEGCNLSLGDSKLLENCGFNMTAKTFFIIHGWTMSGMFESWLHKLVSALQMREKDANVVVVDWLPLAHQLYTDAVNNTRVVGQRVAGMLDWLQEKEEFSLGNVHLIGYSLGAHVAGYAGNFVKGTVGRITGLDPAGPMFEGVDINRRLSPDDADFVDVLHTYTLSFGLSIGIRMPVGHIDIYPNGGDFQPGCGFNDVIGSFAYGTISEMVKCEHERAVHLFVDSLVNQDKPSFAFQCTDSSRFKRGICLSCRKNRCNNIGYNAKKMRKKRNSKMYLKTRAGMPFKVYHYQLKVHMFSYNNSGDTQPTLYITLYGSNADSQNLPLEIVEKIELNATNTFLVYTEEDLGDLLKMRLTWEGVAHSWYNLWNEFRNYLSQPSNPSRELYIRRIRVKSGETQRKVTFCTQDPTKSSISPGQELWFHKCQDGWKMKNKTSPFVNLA
So I've got a bunch of compounds here, and I need their pIC50 values.
Give bare numbers, as −log10 of the molar value.

Use the examples below as a reference point.
smiles repr	pIC50
O=C(CCCCCCc1ccccc1)C(=O)NCc1nnc(-c2ccccc2)s1	6.36
O=C(CCCCCCc1ccccc1)C(=O)NCc1nnc(-c2ccc(OCc3cccc(Br)n3)cc2)s1	6.69
COc1cccc(CCCCCCC(=O)C(=O)NCc2nnc(-c3ccc4ccccc4c3)o2)c1	6.92
CN(C)c1ccc(-c2nnc(CNC(=O)C(=O)CCCCCCc3ccccc3)o2)cc1	4.68
O=C(CCCCCCc1ccc(F)nc1)C(=O)NCc1nnc(-c2ccc(Oc3ccccc3)cc2)o1	6.55
O=C(CCCCCCc1ccccc1)C(=O)NCc1nnc(-c2ccc(OCc3ccc(F)cc3)cc2)o1	6.67
O=C(CCCCCOc1c(F)cccc1F)C(=O)NCc1nnc(-c2ccc(Oc3ccccc3)cc2)o1	5.83
O=C(CCCCCCc1ccccc1)C(=O)NCc1nnc(-c2ccc(OCc3ccccn3)cc2)o1	6.71

Provide pIC50 values for the following items, in order.
1. O=C(CCCCCCc1cncnc1)C(=O)NCc1nnc(-c2ccc(Oc3ccccc3)cc2)o1
2. O=C(CCCCC=Cc1ccccc1)C(=O)NCc1nnc(-c2ccc(Oc3ccccc3)cc2)o1
3. O=C(CCCCCOc1ccccc1)C(=O)NCc1nnc(-c2ccc3ccccc3c2)o1
4. O=C(CCCCCCc1ccccc1)C(=O)NCc1nnc(-c2cccc(Oc3ccccc3)c2)o1

6.01
4.96
5.77
5.76

----------
Target: human endothelial lipase (EL) (Homo sapiens, UniProt Q9Y5X9)
Sequence (Q9Y5X9 21-500): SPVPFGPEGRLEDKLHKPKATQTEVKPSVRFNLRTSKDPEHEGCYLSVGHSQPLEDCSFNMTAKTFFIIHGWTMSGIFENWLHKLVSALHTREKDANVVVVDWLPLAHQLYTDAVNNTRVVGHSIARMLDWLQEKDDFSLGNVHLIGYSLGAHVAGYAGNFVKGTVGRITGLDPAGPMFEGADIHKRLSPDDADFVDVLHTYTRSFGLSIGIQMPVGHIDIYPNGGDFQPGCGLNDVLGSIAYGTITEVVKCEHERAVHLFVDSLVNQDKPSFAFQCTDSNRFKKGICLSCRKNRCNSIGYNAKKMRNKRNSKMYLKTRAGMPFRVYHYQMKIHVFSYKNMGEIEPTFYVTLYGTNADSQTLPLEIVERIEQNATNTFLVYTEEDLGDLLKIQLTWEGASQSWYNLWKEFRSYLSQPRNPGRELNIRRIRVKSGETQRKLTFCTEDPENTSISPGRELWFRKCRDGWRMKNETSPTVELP
Assay: Endothelial Lipase Assay, cell surface lipase activity (human)
Details: cells expressing human EL, PLA1 substrate 10 μM, fluorescence reaction rate; several values in a cell are repeat determinations
pIC50: −log10 of the molar value.
// NO strictly below 6 in pIC50; YES otherwise

Observe how each entry below is paired with its result.
smiles repr	class label
O=C(CCCCCCc1ccccc1)C(=O)NCc1nnc(-c2ccc(Oc3ccccc3)cc2)o1	YES
O=C(CCCCCCc1ccccc1)C(=O)NCc1nnc(-c2ccc(OCc3ccncc3)cc2)o1	YES
O=C(CCCCCOc1cccc(F)c1)C(=O)NCc1nnc(-c2ccc(Oc3ccccc3)cc2)o1	YES

Check the entry O=C(CCCCCCc1cccc(OC(F)(F)F)c1)C(=O)NCc1nnc(-c2ccccc2)o1 : does pIC50 equal or exceed 6? YES

Does the reported pIC50 for O=C(CCCCCOc1cccc(F)c1F)C(=O)NCc1nnc(-c2ccc(Oc3ccccc3)cc2)o1 fall at or above the 6 mark? NO

Determine whether measured pIC50 meets or exceeds 6 for O=C(CCCCCOc1ccc(F)cc1F)C(=O)NCc1nnc(-c2ccc(OCc3ccccc3)cc2)o1 NO

Tell me whether pIC50 is at least 6 here: O=C(CCCCCCc1ccccc1)C(=O)NCc1nnc(-c2ccc(OCc3cc[n+]([O-])cc3)cc2)s1 YES
